# protocol text: Simulated intestinal fluid (SIF) stability in the presence of various enzymes
# Type: in vitro ADME
# condition: SIF + Carboxypeptidase A, 15 min, 1 μM
Examples of molecules with documented % Remaining of Initial (n = 1) follow.
Give the number; % is assumed, so skip it.

Answered cases to consult:
[[record]]
molecule = "CCCCCCCCCCCCCCCC(=O)NCCOC(=O)CCC(=O)OCC(COC(=O)CCCCCCC)OC(=O)CCCCCCC (centres unmarked) [Compound I-3, PEA-Succinate-Glycerol-Di-Caprylic]"
parameter_measured = "% Remaining of Initial (n = 1)"
units_symbol = "%"
quantitative_readout = 76

[[record]]
molecule = "CCCCC/C=C\\C/C=C\\CCCCCCCC(=O)OCC(COC(=O)CCC(=O)OCCNC(=O)CCCCCCCCCCCCCCC)OC(=O)CCCCCCC/C=C\\C/C=C\\CCCCC (centres unmarked) [Compound I-13]"
parameter_measured = "% Remaining of Initial (n = 1)"
units_symbol = "%"
quantitative_readout = 77

[[record]]
molecule = "CCCCCCCCCCCCCCCC(=O)NCCOC(=O)CCC(=O)OCC(O)CO (centres unmarked) [Compound I-9]"
parameter_measured = "% Remaining of Initial (n = 1)"
units_symbol = "%"
quantitative_readout = 43

[[record]]
molecule = "CCCCCCCCCCCCCCCC(=O)NCCOC(=O)CCC(=O)OCC(COC(=O)CCC)OC(=O)CCC (centres unmarked) [Compound I-11]"
parameter_measured = "% Remaining of Initial (n = 1)"
units_symbol = "%"
quantitative_readout = 73

[[record]]
molecule = "CCCCC/C=C\\C/C=C\\CCCCCCCC(=O)OCCNC(=O)CCCCCCCCCCCCCCC [Compound I-6]"
parameter_measured = "% Remaining of Initial (n = 1)"
units_symbol = "%"
quantitative_readout = 77

[[record]]
molecule = "CCCCCCCCCCCCCCCC(=O)NCCOC(=O)CCC [Compound I-2]"
parameter_measured = "% Remaining of Initial (n = 1)"
units_symbol = "%"
quantitative_readout = 79

[[record]]
molecule = "CCCCCCCCCCCCCCCC(=O)NCCOC(=O)CCC(=O)OC[C@H]1O[C@@](CO)(O[C@H]2O[C@H](CO)[C@@H](O)[C@H](O)[C@H]2O)[C@@H](O)[C@@H]1O [Compound I-7]"
parameter_measured = "% Remaining of Initial (n = 1)"
units_symbol = "%"
quantitative_readout = 30


Now look at this entry.
# input What value of % Remaining of Initial (n = 1) has been reported for the following molecule? CC/C=C\C/C=C\C/C=C\C/C=C\C/C=C\CCCC(=O)OCCNC(=O)CCCCCCCCCCCCCCC [Compound I-5]
# output 84
